# ASSAYED TARGET: furin, P09958;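 note: purified furin at 1:10 enzyme:substrate in 50 mM HEPES pH 7.5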
# Sequence (P09958 whole entry): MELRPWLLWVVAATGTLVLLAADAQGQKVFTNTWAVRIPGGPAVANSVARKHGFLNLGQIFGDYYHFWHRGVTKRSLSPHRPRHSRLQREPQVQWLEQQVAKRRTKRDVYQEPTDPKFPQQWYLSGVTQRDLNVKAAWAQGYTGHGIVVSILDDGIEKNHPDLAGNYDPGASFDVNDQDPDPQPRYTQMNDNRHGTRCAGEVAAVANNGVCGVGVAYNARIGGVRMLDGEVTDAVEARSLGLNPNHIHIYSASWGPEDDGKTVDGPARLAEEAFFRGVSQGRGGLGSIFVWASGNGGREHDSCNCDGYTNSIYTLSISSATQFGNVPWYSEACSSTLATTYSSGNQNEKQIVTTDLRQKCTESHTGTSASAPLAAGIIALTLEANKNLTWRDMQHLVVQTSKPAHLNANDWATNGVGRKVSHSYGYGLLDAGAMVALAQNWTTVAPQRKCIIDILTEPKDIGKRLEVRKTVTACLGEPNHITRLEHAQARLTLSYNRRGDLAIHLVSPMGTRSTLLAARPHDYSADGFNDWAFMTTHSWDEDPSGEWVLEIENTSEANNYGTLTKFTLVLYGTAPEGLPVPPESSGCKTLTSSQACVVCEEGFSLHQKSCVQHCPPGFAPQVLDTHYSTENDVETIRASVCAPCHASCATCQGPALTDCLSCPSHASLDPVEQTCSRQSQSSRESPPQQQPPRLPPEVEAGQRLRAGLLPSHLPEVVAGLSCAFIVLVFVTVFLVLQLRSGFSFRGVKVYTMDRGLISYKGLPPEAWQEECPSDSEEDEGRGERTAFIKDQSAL
# TEST: furin cleavage Z-score vs untreated control; higher = more cleavage, active = 3.5 or more, inactive = 1 or less, 8 variable residues between constant flanks
# TEST CONTEXT: 30 min
This is one part of the list. No count for the full screen is at hand.
EXPERIMENTAL ENDPOINT: furin cleavage Z-score
Please reply with the value in numeric form only.

CARIFRSIKQAGNASASA [FS-2148] : 5.31

Would you mind telling me what furin cleavage Z-score value was observed for CARIFRSSDFAGNASASA [FS-2030] ?
0.131

CARIKKWLEHAGNASASA [FS-1721] , same question.
1.15

CALNTGWLAGAGNASASA [HC377] , same question.
0.636
